// data source = PubChem BioAssay (NCI)

tested on: SK-OV-3 ovarian; assay: NCI-60 one-dose screen, 48 h (100 = growth as untreated, 0 = no growth, -100 = all killed); conditions: 10 µM unless noted
This is part of a sample that, as a whole, favours compounds with a hit. Of some 83,000 tested, about 20% had one in any assay.
Below, each entry is listed with its recorded growth.
Reply with just the number (in %).

See these solved cases before continuing.
>>> experimental_result("CN1CCN(Cc2cc(NC(=O)c3cccc(C#Cc4cccc5[nH]nc(N)c45)c3)cc(C(F)(F)F)c2)CC1")
81.6
>>> experimental_result("COc1cccc(/C=C2\\COc3ccc(O)cc3C2=O)c1")
114
>>> experimental_result("CN(C)c1ccc(/C=C/C(=O)c2ccc(Nc3nc(Nc4ccc(F)cc4)nc(Nc4ccc(Cl)cc4)n3)cc2)cc1")
108
>>> experimental_result("CCNC(=O)Oc1ccc(/C(=C(/C)Cc2ccc(OC)cc2)c2ccc(OCCN3CCCCCC3)cc2)cc1")
87.7
>>> experimental_result("CCCCCCC(CCCC)COC(=O)c1ccc(Cl)cc1 (centres undefined)")
107

Okay, now this molecule:
Exercise: # get_value(readout='growth', item= `O=C1CCCc2nc3sc4c(=O)n(-c5ccccc5Cl)nnc4c3cc21` )
Key: 107
